B1: DVL3 (parent)
chain: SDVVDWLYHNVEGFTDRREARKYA

# Variants of: B1
# assay details: protein stability index of a GFP-peptide fusion (GPS, HEK-293T) (PSI 1-6); higher = more stable;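 note: lentivirally expressed fusions sorted by FACS into six bins by GFP to DsRed ratio, PSI derived from sequencing read proportions per bin multiplied by bin number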
# measurement setup: c terminus: a fixed tail appended
Label scheme, based on protein stability index: lo (below 3), med (3 to below 4), hi (4 or more)

Hi, small favor: classify V3M by its protein stability index when you get a moment. med

Hi, small favor: classify E19M by its protein stability index when you get a moment. lo

Hi, small favor: classify W6I by its protein stability index when you get a moment. hi

Hi, small favor: classify G13C by its protein stability index when you get a moment. lo

Hi, small favor: classify R21S by its protein stability index when you get a moment. lo

Hi, small favor: classify V11N by its protein stability index when you get a moment. med

Hi, small favor: classify E19A by its protein stability index when you get a moment. lo

Hi, small favor: classify Y8G by its protein stability index when you get a moment. hi

Hi, small favor: classify H9Q by its protein stability index when you get a moment. med

Hi, small favor: classify Y8M by its protein stability index when you get a moment. lo

Hi, small favor: classify S1V by its protein stability index when you get a moment. med

Hi, small favor: classify L7C by its protein stability index when you get a moment. med

Hi, small favor: classify K22F by its protein stability index when you get a moment. lo

Hi, small favor: classify D5W by its protein stability index when you get a moment. lo

Hi, small favor: classify D16R by its protein stability index when you get a moment. lo

Hi, small favor: classify W6T by its protein stability index when you get a moment. hi

Hi, small favor: classify R17N by its protein stability index when you get a moment. lo

Hi, small favor: classify D5T by its protein stability index when you get a moment. lo

Data provenance is the supplement of paper PMC10567573.
